Reported cell viability is given for each of the following compounds.
System: SEM cells
methodSummary: cell viability relative to DMSO control; higher = less cytotoxic
testParameters: RPMI 5 mM glucose + 10% dialyzed FBS; 48 h; 0.19 µM
metricName: cell viability

>>> result("COc1cc([C@@H]2c3cc4c(cc3[C@@H](O)C3COC(=O)C32)OCO4)cc(OC)c1O (stereo not given in full)")
"52.8%"
>>> result("Oc1ccc(-c2nc(-c3ccncc3)c(-c3ccc(F)cc3)[nH]2)cc1")
"48.4%"
>>> result("Cc1nc(N)sc1-c1ccnc(Nc2ccc(N3CCOCC3)cc2)n1")
"102%"
>>> result("COc1ccc(-c2cc3c(C)nc(N)nc3n([C@H]3CC[C@H](OCCO)CC3)c2=O)cn1")
"58.9%"
>>> result("CON(C)C(=O)N1\\N=C(/S[C@]1(CCCN)C2=CC=CC=C2)C3=CC(=CC=C3F)F")
"23.2%"
